targetOrTestSystem: Mitogen-activated protein kinase kinase kinase 14 (Homo sapiens)
Sequence (Q99558 whole entry): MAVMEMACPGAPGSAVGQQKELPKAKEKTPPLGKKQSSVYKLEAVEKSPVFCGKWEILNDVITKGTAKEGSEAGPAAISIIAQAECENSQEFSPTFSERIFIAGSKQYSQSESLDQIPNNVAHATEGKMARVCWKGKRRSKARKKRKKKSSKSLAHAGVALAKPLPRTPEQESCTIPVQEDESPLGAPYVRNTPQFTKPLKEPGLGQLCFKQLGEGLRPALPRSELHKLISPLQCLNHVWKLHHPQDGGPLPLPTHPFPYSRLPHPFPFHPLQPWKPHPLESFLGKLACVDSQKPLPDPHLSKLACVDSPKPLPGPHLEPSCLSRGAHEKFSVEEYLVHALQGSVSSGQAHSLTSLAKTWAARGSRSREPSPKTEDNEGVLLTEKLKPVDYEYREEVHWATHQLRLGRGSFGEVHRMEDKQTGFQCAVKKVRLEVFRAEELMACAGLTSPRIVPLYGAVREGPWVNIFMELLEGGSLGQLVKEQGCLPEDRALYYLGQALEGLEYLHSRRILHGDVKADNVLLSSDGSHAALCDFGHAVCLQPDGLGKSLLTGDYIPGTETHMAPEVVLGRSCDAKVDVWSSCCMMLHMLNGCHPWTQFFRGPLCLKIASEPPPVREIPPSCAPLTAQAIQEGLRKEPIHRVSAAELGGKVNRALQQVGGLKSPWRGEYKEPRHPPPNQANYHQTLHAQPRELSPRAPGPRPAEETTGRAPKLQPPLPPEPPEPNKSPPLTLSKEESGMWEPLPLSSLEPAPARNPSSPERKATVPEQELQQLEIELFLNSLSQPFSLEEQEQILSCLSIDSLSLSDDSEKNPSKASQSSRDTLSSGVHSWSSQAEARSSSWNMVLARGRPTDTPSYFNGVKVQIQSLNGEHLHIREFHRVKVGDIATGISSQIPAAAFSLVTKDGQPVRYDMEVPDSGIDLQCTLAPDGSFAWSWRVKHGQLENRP
testDetails: Inhibition of auto-phosphorylation of recombinant human NF-kappaB-inducing kinase (NIK/MAP3K14) activity
quantityKind: IC50

| smilesEntry | quantityKind | result |
| --- | --- | --- |
| CN1CC[C@@](O)(c2cccc(-c3nc(-c4c[nH]c5ncccc45)cs3)c2)C1=O | IC50 | < 100 nM |
| Cc1cnc2[nH]cc(-c3nc(-c4cccc([C@]5(O)CCN(C)C5=O)c4)cs3)c2c1 | IC50 | < 100 nM |
| O[C@@]1(c2cccc(-c3csc(-c4c[nH]c5ncccc45)n3)c2)COc2cccnc21 | IC50 | > 500 nM |
| CN1CC[C@@](O)(c2cccc(-c3cc(-c4c[nH]c5ncccc45)co3)c2)C1=O | IC50 | > 500 nM |
| CN1CC[C@@](O)(c2cccc(-c3csc(-c4c[nH]c5ncc(F)c(F)c45)n3)c2)C1=O | IC50 | < 100 nM |
| CN1CC[C@@](O)(c2cccc(-n3cnc(-c4c[nH]c5ncccc45)n3)c2)C1=O | IC50 | < 100 nM |

Would you kindly look at the next entry?
Ask | Consider the compound shown here: `CN1CC[C@@](O)(c2cccc(-c3nc(-c4cccc5[nH]ncc45)cs3)c2)C1=O` What is its recorded IC50?
Reply | > 500 nM

// provenance: BindingDB's records for patent WO2022104348
